Task for the reader: assign each of the following compounds its reported Kd.

Task: Give Kd for O=S(=O)(c1ccc(F)cc1)c1cc2ccccc2c(Nc2nccs2)n1 tested on TYK2 (Homo sapiens, UniProt P29597).
Sequence (P29597 whole entry): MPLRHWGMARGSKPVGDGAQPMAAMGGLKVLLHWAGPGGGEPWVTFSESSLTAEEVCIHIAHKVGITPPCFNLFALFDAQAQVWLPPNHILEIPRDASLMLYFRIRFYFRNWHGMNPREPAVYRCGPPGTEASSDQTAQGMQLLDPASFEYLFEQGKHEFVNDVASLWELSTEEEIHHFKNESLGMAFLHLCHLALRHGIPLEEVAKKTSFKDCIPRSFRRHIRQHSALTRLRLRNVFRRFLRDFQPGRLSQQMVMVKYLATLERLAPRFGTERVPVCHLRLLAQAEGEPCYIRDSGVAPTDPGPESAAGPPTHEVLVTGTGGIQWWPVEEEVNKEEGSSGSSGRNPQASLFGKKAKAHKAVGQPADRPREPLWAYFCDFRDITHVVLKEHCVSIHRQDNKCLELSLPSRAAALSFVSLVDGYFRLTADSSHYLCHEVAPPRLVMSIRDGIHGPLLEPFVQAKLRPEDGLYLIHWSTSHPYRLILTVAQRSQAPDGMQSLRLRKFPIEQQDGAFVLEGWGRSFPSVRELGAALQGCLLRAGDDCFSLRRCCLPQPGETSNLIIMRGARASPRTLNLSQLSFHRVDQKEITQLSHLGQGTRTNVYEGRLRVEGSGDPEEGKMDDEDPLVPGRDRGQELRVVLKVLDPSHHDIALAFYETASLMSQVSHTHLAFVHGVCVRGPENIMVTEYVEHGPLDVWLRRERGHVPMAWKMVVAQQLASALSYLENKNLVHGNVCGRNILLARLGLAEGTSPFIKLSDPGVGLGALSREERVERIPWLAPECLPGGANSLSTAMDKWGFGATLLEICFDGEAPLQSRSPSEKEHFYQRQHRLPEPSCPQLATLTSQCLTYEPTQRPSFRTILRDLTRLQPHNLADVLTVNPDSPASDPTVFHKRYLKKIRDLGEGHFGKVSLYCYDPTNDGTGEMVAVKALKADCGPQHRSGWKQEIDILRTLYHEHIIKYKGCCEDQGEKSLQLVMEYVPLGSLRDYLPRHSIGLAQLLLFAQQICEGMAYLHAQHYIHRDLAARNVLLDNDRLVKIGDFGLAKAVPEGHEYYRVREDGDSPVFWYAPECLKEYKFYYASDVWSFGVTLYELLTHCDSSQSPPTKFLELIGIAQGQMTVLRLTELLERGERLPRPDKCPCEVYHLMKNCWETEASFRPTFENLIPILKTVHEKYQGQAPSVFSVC
Result: 10 to 100 nM

Task: Give Kd for O=S(=O)(c1ccc(F)cc1)c1cc2ccccc2c(Nc2cc[nH]n2)n1 tested on TYK2 (Homo sapiens, UniProt P29597).
Result: ≤ 10 nM

Task: Give Kd for O=S(=O)(c1ccc(F)cc1)c1cc2ccccc2c(Nc2ncco2)n1 tested on TYK2 (Homo sapiens, UniProt P29597).
Result: > 100 nM

Task: Give Kd for Cc1cc(Nc2nc([S+]([O-])c3ccc(F)cc3)cc3ccccc23)n[nH]1 (stereo not drawn) tested on TYK2 (Homo sapiens, UniProt P29597).
Result: ≤ 10 nM

Task: Give Kd for Cc1cnc(Nc2nc(S(=O)(=O)c3ccc(F)cc3)cc3ccccc23)s1 tested on TYK2 (Homo sapiens, UniProt P29597).
Result: ≤ 10 nM

Task: Give Kd for O=S(=O)(c1ccc(F)cc1)c1cc2ccccc2c(Nc2ncns2)n1 tested on TYK2 (Homo sapiens, UniProt P29597).
Result: ≤ 10 nM

Task: Give Kd for CCn1cnc(Nc2nc(S(=O)(=O)c3ccc(F)cc3)cc3ccccc23)c1 tested on TYK2 (Homo sapiens, UniProt P29597).
Result: ≤ 10 nM

Task: Give Kd for Cc1cc(Nc2nc(C(=O)c3ccc(F)cc3)cc3ccccc23)n[nH]1 tested on TYK2 (Homo sapiens, UniProt P29597).
Result: ≤ 10 nM

Task: Give Kd for Cn1cnc(Nc2nc(S(=O)(=O)c3ccc(F)cc3)cc3ccccc23)c1 tested on TYK2 (Homo sapiens, UniProt P29597).
Result: ≤ 10 nM
